// provenance: the supplement of paper PMC9170038

System: MS2 coat protein
Assay: apparent KD of MS2 coat protein; higher = weaker reporter binding
Details: Eterna round: R107; input ligand: arginine 13.2 mM
apparent KD of MS2 coat protein listing for selected sequences.

SEQUENCE	VALUE_UNIT	apparent KD of MS2 coat protein
GCAUUACAUGAGGAUCACCCAUGUCUAGAUACCAGAUUUGUUUGAAUCCCUUGGCAGCUAGUGGACCACCGUACACGACAUACUA [theeternabot_sameState_MS2_Theo_A_17]	nM	29.8
AUUCAUAACUGAAGGAGCGUGAUAUAAAUUUUUACAUGAGGAUCACCCAUGUUUCAUCGAUCACAGGUAGGUCGCAGAUUCUCAU [JR_SSArginiB_Sub012]	nM	31.1
CGCCACUCGAGUGAUCCUCACGAGUGGCUACGAGGACCGGUACGGCCGCCACUCGAAUUAACAUGAGGAUCACCCAUGUAAUCUA [Brourdmod08]	nM	30
AGACAUGAGGAUCACCCAUGUAGUAUGGAUACCAGAUCCAGAUUUAUCCCUUGGCAGCUGUGGUACAGCGAUGGAUCGCUCCUAG [Exclusion - Theophylline A (Freestyle 11)]	nM	22.6

====

System: MS2 coat protein
Test: apparent KD of MS2 coat protein; higher = weaker reporter binding
Details: Eterna round: R107; input ligand: none
TEST_READOUT: apparent KD of MS2 coat protein (nM)

SEQUENCE	VALUE_UNIT	MEASUREMENT
AAGAGUUGACAAAAGUCAGCUCAAACCGAAGGAGCGGGAGAAAUCCCAGGUAGGUCGCGGUUACAUGAGGAUCACCCAUGUUCCU [ArgAS 6 #BothOrNeither #OpenEnded]	nM	355
AUACAUGAGGAUCACCCAUGUAUAGUUGAAGGAGCGACCAGAGGGUCAGGUAGGUCGCAGCACAUGAGGAUCACCCAUGUAUUUU [#1 Exclusion - Arginine A Attempt #14 (Inspired by Pi)]	nM	38
UGUAUGUGAUCUGAUACCAGUCCAACUGGUAAAGCACGAGGAUCACCCGUGUAAAAUUGGGACCCUUGGCAGCAGAUCGCAUACU	nM	228
CCUCGUGCAACAUGAGGAUCACCCAUGUACCGAGGACCGGUACGGCCGCCACUCGAAAACGAGUACCAUUAGCGAAAGCUGAUGG [Trp A SS mod1]	nM	13.1
UCGCUCUGGGUGAAUUCCGGAGAUGUGGAAGGAGCGGACGAAAGUCCAGGUAGGUCGCCAUCGAACAUGAGGAUCACCCAUGUAC [Same State - Arginine A (Freestyle 24)]	nM	93.2

====

System: MS2 coat protein
Assay: apparent KD of MS2 coat protein; designed switch direction (-1 OFF switch, 1 ON switch): 1; higher = weaker reporter binding
Details: input ligand: none
Decision: apparent KD of MS2 coat protein compared against 200 nM; not below it gives Condition met, below it gives Condition not met.

SEQUENCE	TARGET_OF_ASSAY	CAT
UGGUACAUGGGAGGAUAUCUCAUGGUGACAUGAGGAUCACCCAUGUAGUUGGACCGGAAACGGUGAGAGAAGGCCCAUGUACCU [JL SSNG1 3.74] (Eterna round: R96, puzzle: Same State NG 2)	MS2 coat protein	Condition not met
GGUCGGACUCACAUGAGGAUCACCCAUGUUGCGGAAACGCCACAGGAUAUCUGUCCGAAAAGGUCAGAGAAGGGUGAACCGACC [Fiskers NG3ss - 63] (Eterna round: R96, puzzle: Same State NG 3)	MS2 coat protein	Condition met
AAAGAAGAAAGACAGGAUAUGGAUGGGUAAACAUGAGGAUCACCCAUGUAUAAGAAAGAAAGAAACCAGAAGGGUCAAAAGAAAA [Darius III] (Eterna round: R96, puzzle: Same State 2)	MS2 coat protein	Condition met
AUAGUUUCCGAAGGAUAUGAUGAGGAUCACCCAUCAGAAGGUUGGCUAUUGGGCGGACAUGAGGAUCACCCAUGUCUUUCUGUU (Eterna round: R96, puzzle: Same State NG 1)	MS2 coat protein	Condition not met
AACAUGAGGAUCACCCAUGUGAAAUACUGAGGCAGCUCAGGGAAGGAUAUGGUUGACACCCUCGACCAGAAGGUCCAAAAUAAA [Aquorxe] (Eterna round: R96, puzzle: Same State NG 3)	MS2 coat protein	Condition not met
